Molecular target: T1, human LAG-3-His (human, UniProt P18627 23-450)
T1 construct: Bought antigen (ArcoBiosystems), 100 nM in solution in the ForteBio assay; also called human LAG-3 antigen (ArcoBiosystems); hLAG-3; not shown: His tag
T1 sequence (looked up): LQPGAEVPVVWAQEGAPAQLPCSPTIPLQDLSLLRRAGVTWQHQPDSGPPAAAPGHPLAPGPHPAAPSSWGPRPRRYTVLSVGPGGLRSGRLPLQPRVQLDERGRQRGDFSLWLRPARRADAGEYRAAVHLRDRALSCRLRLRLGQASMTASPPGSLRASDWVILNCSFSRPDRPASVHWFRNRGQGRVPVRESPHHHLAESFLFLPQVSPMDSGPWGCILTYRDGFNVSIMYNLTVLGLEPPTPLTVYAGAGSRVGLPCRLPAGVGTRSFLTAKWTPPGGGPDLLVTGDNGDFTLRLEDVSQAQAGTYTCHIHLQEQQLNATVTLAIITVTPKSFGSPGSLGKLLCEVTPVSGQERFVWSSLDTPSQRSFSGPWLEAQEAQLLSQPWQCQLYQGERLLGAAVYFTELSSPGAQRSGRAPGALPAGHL
Test: BLI (ForteBio), antibody on AHQ tip, human LAG-3-His 100 nM in solution
property.name: koff (s⁻¹)
Give a bare numeral; the unit s⁻¹ is implied.

Identify the reported koff for the following entry. ADI-26869 (antibody, human IgG4 S228P, kappa, F234A L235A, V domains shown, Fully human antibody from yeast display; IgG4 heavy chain constant region with kappa light chain; expressed in HEK293 cells; also called anti-human LAG-3 antibody ADI-26869; parent antibody) VH: QLQLQESGPGLVKPSETLSLTCTVSGGSISSSDYYWGWIRQPPGKGLEWIGSIYYSGSTYYNPSLKSRVTISVDTSKNQFSLKLSSVTAADTAVYYCARVRTWDAAFDIWGQGTMVTVSS VL: DIQMTQSPSSLSASVGDRVTITCQASQDISNYLNWYQQKPGKAPKLLIYDASNLETGVPSRFSGSGSGTDFTFTISSLQPEDIATYYCQQVHALPPWTFGGGTKVEIKR
0.00385
